- assayedSystem: T1, 4H2165-AA
- T1 chain: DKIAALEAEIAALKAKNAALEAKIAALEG
- methodNotes: two-hybrid library CCmax;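 further: natural log of median RNA to DNA barcode read ratio; higher means stronger binding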
- measurementContext: mean of both orientations
Each item that follows carries a reported interaction score.

Worked examples follow.
[[record]]
binder = "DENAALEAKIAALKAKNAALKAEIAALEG [4H1401-AA]"
obsvalue = -1.62

[[record]]
binder = "DENAALKAEIAALKAEIAALKAKNAALEG [4H1615-AA]"
obsvalue = -1.55

[[record]]
binder = "DENAALKAKIAALKAEIAALKAENAALEG [4H1867-AA]"
obsvalue = -1.77

[[record]]
binder = "DENAALEAENAALEAEIAALEAEIAALEG [4H1153-AA]"
obsvalue = -1.33


The value of interaction score measured for the binder DENAALEAEIAALKAKIAALKAKNAALEG [4H1135-AA] turned out to be -1.42

The value of interaction score measured for the binder DENAALKAKIAALEAENAALKAKIAALEG [4H1821-AA] turned out to be -1.28

The value of interaction score measured for the binder DEIAALEAENAALEAKIAALKAKNAALEG [4H175-AA] turned out to be -1.43

The value of interaction score measured for the binder DENAALKAEIAALEAEIAALKAKNAALKG [4H1552-AA] turned out to be -1.44
